Data origin: patent US20260151494A1

molecular target: T1, apical domain of human CD71 (human, UniProt P02786 189-383, limits assumed); experiment: primary ELISA; note: test concentration or dose not given here
T1 construct: domain: apical domain; Screen 4 panned on human apical domains, the ELISA text says only 'apical domain'
T1 sequence (P02786 189-383 limits assumed): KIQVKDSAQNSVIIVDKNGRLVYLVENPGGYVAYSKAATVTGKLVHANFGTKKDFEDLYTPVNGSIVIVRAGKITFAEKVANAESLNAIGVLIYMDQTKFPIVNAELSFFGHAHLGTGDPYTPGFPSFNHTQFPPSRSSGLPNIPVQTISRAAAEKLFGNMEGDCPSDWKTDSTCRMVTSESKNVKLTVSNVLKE
READOUT_TYPE: RLU (RLU)

1. CD71-binding FN3 domain of SEQ ID NO: 490 (designed binder) MLPAPKNLVVSRVTEDSARLSWTAPDAAFDSFFIGYLEPQPPGEAISLQVPGSERSYDLTGLKPGTEYNVTIQGVKGGFPSAPLVANFTT	2.9e+06
2. CD71-binding FN3 domain of SEQ ID NO: 541 (designed binder) MLPAPKNLVVSRVTEDSARLSWTAPDAAFDSFFIGYLEPQPPGEAIDLWVPGSERSYDLTGLKPGTEYNVTIQGVKGGFPSMPLDAYFTT	3.42e+06
